- measurement protocol: inhibitors of VEEV TC-83 cytopathic effect, confirmation, Vero cells (AID 588727)
- conditions: VEEV TC-83 cytopathic effect inhibition, at 20 µM; hits give high values unless noted
The campaign covered roughly 350,000 compounds. About 450 (0.13%) were called active. These entries were drawn from the full list. Potency and affinity values are given separately.
Returns one of T or F; T when inhibition is >= 1%.

Check this molecule for inhibition at or above 1%: O=C1/C(=C/c2cccs2)SC(=S)N1CC(=O)N1CCCCC1CCO (stereo not given)
T

Check this molecule for inhibition at or above 1%: COc1ccccc1-c1ccc2c(c1)O[C@@H](CN(C)C(=O)Nc1cccc(F)c1)[C@H](C)CN([C@H](C)CO)S2(=O)=O
T

Check this molecule for inhibition at or above 1%: O=C(NCCN1CCN(C(=O)c2cccc(OC(F)F)c2)CC1)c1cccc(OC(F)F)c1
F

Check this molecule for inhibition at or above 1%: CC1=Nc2cc(C(=O)N3CCCC3)ccc2Sc2ccc(C)cc21
T

Check this molecule for inhibition at or above 1%: COc1ccc(CN(CC(=O)NCc2ccc(F)cc2)C(=O)c2csnn2)cc1
T

* * *

- measurement protocol: inhibitors of VEEV TC-83 cytopathic effect, confirmation, Vero cells (AID 588727)
- conditions: VEEV TC-83 cytopathic effect inhibition, at 20 µM; hits give high values unless noted
Out of some 350,000 compounds screened, about 450 (0.13%) were called active. The list is a sample of the results. Entries with a potency or affinity are not part of this list.
molecules and their reported inhibition

// below: answered molecules
Cc1[nH]c(C)c(S(=O)(=O)N2CCN(c3cccc(Cl)c3)CC2)c1C(=O)N1CCCC1 ... 1.13% (inactive)
O=C1NC(=O)c2cc(NC(=O)c3cccc4ccccc34)ccc21 ... 2.09% (inactive)
Cc1[nH]c(C)c(S(=O)(=O)N2CCN(c3cccc(C(F)(F)F)c3)CC2)c1C(=O)N1CCCC1 ... 0.9% (inactive)

Please report inhibition for the following molecule: O=C(CCn1c(=S)oc2ccccc21)Nc1cccc(O)c1
1.38% (inactive)

Please report inhibition for the following molecule: COc1ccc(S(=O)(=O)c2c(O)c3ccc(C(=O)Nc4ccccc4Cl)cc3[nH]c2=O)cc1
0.45% (inactive)

Please report inhibition for the following molecule: Cc1ccccc1CC(=O)c1ccc(O)c(C)c1O
5.23% (inactive)

* * *

- measurement protocol: inhibitors of VEEV TC-83 cytopathic effect, confirmation, Vero cells (AID 588727)
- conditions: VEEV TC-83 cytopathic effect inhibition, at 20 µM; hits give high values unless noted
Among all 350,000 compounds or so, about 450 (0.13%) were called active. Not all results are given here. Entries with a potency or affinity are not part of this list.
Each entry belongs to exactly one class, chosen by where its inhibition falls: lower = under 1%, middle = from 1% up to 8%, upper = 8% and over

Reference set, count: 5
COc1ccccc1N/N=C(\C#N)C(=N)N1CCOCC1 ... middle
Cc1ccccc1C(=O)NN1C(=O)CSC1=S ... lower
COc1cc2nc(N3CCN(C(=O)c4ccco4)CC3)nc(N)c2cc1OC ... upper
Cc1ccccc1N1CC(O)(c2cccs2)[N+]2=C1CCCC2 (stereo unspecified) ... middle
Cc1cc(SCC(=O)Nc2ncc(Cl)cc2Cl)nc2ccccc12 ... lower

Switching to the query record.
Which inhibition band matches CCC(CC)c1nnc(NC(=O)c2c(C)nn(Cc3ccccc3Cl)c2C)s1 ?
middle

* * *

- measurement protocol: inhibitors of VEEV TC-83 cytopathic effect, confirmation, Vero cells (AID 588727)
- conditions: VEEV TC-83 cytopathic effect inhibition, at 20 µM; hits give high values unless noted
The whole screen tested about 350,000 compounds, of which about 450 (0.13%) were called active. Only a sample is shown. Measured potencies and affinities stand elsewhere.
molecules and their reported inhibition
Write the value in % as a bare number.

Please report inhibition for the following molecule: Cc1sc2nc(SCC(=O)c3cccs3)n(Cc3ccco3)c(=O)c2c1C
0.85

Please report inhibition for the following molecule: O=c1c2c([nH]c3ccccc13)CCCCC2
2.45

Please report inhibition for the following molecule: COc1cc2cc(C(=O)N/N=C/c3ccc(F)cc3)[nH]c2cc1OC
2.5

Please report inhibition for the following molecule: Cc1nn(Cc2cccc(C(=O)O)c2)c(C)c1[N+](=O)[O-]
1.46

Please report inhibition for the following molecule: Cc1ccc(C(=O)NC(=S)NNC(=O)c2ccccc2)cc1
0.96

Please report inhibition for the following molecule: COc1ccccc1-c1cn[nH]c1-c1ccc(OCc2ccc(F)cc2)cc1O
3.76

Please report inhibition for the following molecule: O=C(NNC(=S)NC(=O)c1cccs1)c1ccc(O)cc1
3.95

Please report inhibition for the following molecule: O=C(NNC(=S)NC(=O)c1ccccc1)c1ccc(O)cc1
4.47

Please report inhibition for the following molecule: CCCOc1ccc(C(=O)NNC(=S)NC(=O)c2ccccc2)cc1
7.4

Please report inhibition for the following molecule: CCOC(=O)c1ccc(CC2S/C(=C(\C#N)C(C)=O)NC2=O)cc1 (centres undefined)
1.08

Please report inhibition for the following molecule: CCCCC(=O)NC(=S)NNC(=O)c1ccc(OC)cc1
11

Please report inhibition for the following molecule: CC(C)(C)n1nc2c(c1NC(=O)c1ccc(F)c(F)c1)CS(=O)(=O)C2
0.7

Please report inhibition for the following molecule: Cc1cccc(C(=O)NC(=S)NCc2ccccc2)c1
2.47

Please report inhibition for the following molecule: CCNc1ccc(Br)cc(C(=O)/C=C/c2ccccc2Cl)c1=O
2.29

Please report inhibition for the following molecule: O=C1c2cccnc2C(=O)N1CO
0.3

Please report inhibition for the following molecule: OCC1(CCOc2ccccc2)CCN(Cc2ccncc2)CC1
0.23

Please report inhibition for the following molecule: O=C(NNC(=S)NC(=O)c1ccco1)c1ccc(F)cc1
0.7

* * *

- measurement protocol: inhibitors of VEEV TC-83 cytopathic effect, confirmation, Vero cells (AID 588727)
- conditions: VEEV TC-83 cytopathic effect inhibition, at 20 µM; hits give high values unless noted
Hit rate of the full screen: of about 350,000 compounds, about 450 (0.13%) were called active. Not all results are given here. Entries with a potency or affinity are not part of this list.
Returns one of met or not met; met when inhibition is >= 1%.

Reference set, count: 5
O=C(CCNC(=O)c1ccc([N+](=O)[O-])cc1)NC1CCCc2ccccc21 (stereo not drawn) ... met
O=C(CNS(=O)(=O)c1ccccc1)OCc1cccc([N+](=O)[O-])c1 ... met
CC(=O)Nc1ccc(S(=O)(=O)N(C)CC(=O)OC(C)C(=O)NC2(C#N)CCCCC2)cc1 (stereo not drawn) ... not met
CCn1c(SCC(=O)OC)nnc1-c1ccncc1 ... not met
CC12CC[C@H]3[C@@H](CCC4(O)C[C@H](O)CCC34/C=N/NC(=O)c3ccccc3F)C1(O)CCC2C1=CC(=O)OC1 (stereo partly drawn) ... met

Check this molecule for inhibition at or above 1%: COc1ccc(C2c3[nH]c4ccccc4c3CCN2C(=O)c2ccc(=O)n(C)n2)c(F)c1 (stereo not drawn)
met

Check this molecule for inhibition at or above 1%: COC(=O)C1CCN(C(=O)COC(=O)CC(NC(N)=O)c2ccc(Cl)cc2)CC1 (stereo not drawn)
met

Check this molecule for inhibition at or above 1%: COc1ccc(C2c3c(ncn(CCCO)c3=N)Oc3ccc4ccccc4c32)cc1OC (stereo not drawn)
met

Check this molecule for inhibition at or above 1%: CCOc1ccc(/C=C/c2nc(C#N)c(NCCCOC)o2)cc1
met

Check this molecule for inhibition at or above 1%: CC1CCN(c2ccc(C(=O)OCC(=O)NCCN3C(=O)CSC3=O)cc2[N+](=O)[O-])CC1
met

Check this molecule for inhibition at or above 1%: COc1ccc(CN2CCN(c3ccccc3F)CC2)cc1O
not met

Check this molecule for inhibition at or above 1%: c1ccc(Oc2nc(NCc3ccco3)nc(NCc3ccco3)n2)cc1
met

Check this molecule for inhibition at or above 1%: OCC1CCCCN1C(=S)NCc1ccco1 (stereo not drawn)
met

Check this molecule for inhibition at or above 1%: C/C(=N\NC(=O)c1ccncc1)c1c(O)n(Cc2ccccc2)c(=O)[nH]c1=O
met

Check this molecule for inhibition at or above 1%: CC1=CC(C)(C)N2C(=O)C3(NCCc4c3[nH]c3ccccc43)c3cccc1c32 (stereo not drawn)
not met

Check this molecule for inhibition at or above 1%: CCCCCc1ccc(-c2nnc(N)s2)cc1
met

Check this molecule for inhibition at or above 1%: CCc1ccc(OCC(=O)Nc2nnc(-c3ccco3)s2)cc1
not met

Check this molecule for inhibition at or above 1%: COc1ccc(Cl)c2sc(N(CCN(C)C)C(=O)c3ccc4c(c3)OCCO4)nc12
met

Check this molecule for inhibition at or above 1%: COc1ccccc1-c1n[nH]c(=S)o1
not met

Check this molecule for inhibition at or above 1%: CCc1ccc(C(C(=O)NC2CCCC2)N(C(=O)c2csnn2)C2CC2)cc1 (stereo not drawn)
not met

Check this molecule for inhibition at or above 1%: CCNc1oc(/C=C/c2ccc(OCC)cc2)nc1C#N
met

Check this molecule for inhibition at or above 1%: COc1ccc(C2c3c(ncn(CCN4CCOCC4)c3=N)Oc3ccc4ccccc4c32)cc1OC (stereo not drawn)
met

Reference source: PubChem BioAssay AID588727
